These measurements were taken from patent US5356882A.

- test-method-notes: CCID50 (Table 1; method not described)
- Format: cell-based
readout-label: CC50

Ask | # lookup: CC50 of O=c1[nH]c(=O)n([C@H]2C[C@H](O)[C@@H](CO)S2)cc1/C=C/Br [CH=CHBr, OH]
Reply | > 500 µM
